Data provenance is ChEMBL document CHEMBL5291721.

Entries below carry reported AC50 on Motilin receptor (Homo sapiens).
Sequence (O43193 whole entry): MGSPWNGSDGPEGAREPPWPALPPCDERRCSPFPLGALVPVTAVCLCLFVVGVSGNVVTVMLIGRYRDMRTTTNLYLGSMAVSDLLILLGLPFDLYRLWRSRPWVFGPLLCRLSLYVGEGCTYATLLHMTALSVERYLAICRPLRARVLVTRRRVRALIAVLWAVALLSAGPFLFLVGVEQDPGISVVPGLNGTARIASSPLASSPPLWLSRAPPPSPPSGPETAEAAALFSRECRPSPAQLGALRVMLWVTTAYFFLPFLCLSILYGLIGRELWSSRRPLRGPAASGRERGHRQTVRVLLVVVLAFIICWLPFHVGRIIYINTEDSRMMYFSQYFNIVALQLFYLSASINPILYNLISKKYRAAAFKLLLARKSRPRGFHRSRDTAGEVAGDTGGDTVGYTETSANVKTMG

COMPOUND	AC50
O=C1CCc2cc(OCCCCc3nnnn3C3CCCCC3)ccc2N1 [CILOSTAZOL]	> 30 µM
CCN1CCN(Cc2ccc(Nc3ncc(F)c(-c4cc(F)c5nc(C)n(C(C)C)c5c4)n3)nc2)CC1 [ABEMACICLIB]	> 30 µM
CN1CCC(=C2c3ccccc3CCc3cccnc32)CC1 [AZATADINE]	> 10 µM
Cc1cccc(N2CC(CO)OC2=O)c1 (stereo not given) [TOLOXATONE]	> 30 µM
CCCCC1C(=O)N(c2ccccc2)N(c2ccccc2)C1=O [PHENYLBUTAZONE]	> 30 µM
O=C1C(CC[S+]([O-])c2ccccc2)C(=O)N(c2ccccc2)N1c1ccccc1 (stereo not given) [SULFINPYRAZONE]	> 10 µM
O=C1CN=C(c2ccccn2)c2cc(Br)ccc2N1 [BROMAZEPAM]	> 10 µM
Cn1c(=O)cc(N2CCC[C@@H](N)C2)n(Cc2ccccc2C#N)c1=O [ALOGLIPTIN]	> 10 µM
CN1C(C(=O)Nc2ccccn2)=C(O)c2ccccc2S1(=O)=O [PIROXICAM]	> 10 µM
Cc1noc(NS(=O)(=O)c2ccc(N)cc2)c1C [SULFISOXAZOLE]	> 10 µM

---

target: Voltage-dependent L-type calcium channel subunit alpha-1C (Rattus norvegicus, UniProt P22002); assay type: functional; further: assay procedure not described here
Sequence (P22002 whole entry): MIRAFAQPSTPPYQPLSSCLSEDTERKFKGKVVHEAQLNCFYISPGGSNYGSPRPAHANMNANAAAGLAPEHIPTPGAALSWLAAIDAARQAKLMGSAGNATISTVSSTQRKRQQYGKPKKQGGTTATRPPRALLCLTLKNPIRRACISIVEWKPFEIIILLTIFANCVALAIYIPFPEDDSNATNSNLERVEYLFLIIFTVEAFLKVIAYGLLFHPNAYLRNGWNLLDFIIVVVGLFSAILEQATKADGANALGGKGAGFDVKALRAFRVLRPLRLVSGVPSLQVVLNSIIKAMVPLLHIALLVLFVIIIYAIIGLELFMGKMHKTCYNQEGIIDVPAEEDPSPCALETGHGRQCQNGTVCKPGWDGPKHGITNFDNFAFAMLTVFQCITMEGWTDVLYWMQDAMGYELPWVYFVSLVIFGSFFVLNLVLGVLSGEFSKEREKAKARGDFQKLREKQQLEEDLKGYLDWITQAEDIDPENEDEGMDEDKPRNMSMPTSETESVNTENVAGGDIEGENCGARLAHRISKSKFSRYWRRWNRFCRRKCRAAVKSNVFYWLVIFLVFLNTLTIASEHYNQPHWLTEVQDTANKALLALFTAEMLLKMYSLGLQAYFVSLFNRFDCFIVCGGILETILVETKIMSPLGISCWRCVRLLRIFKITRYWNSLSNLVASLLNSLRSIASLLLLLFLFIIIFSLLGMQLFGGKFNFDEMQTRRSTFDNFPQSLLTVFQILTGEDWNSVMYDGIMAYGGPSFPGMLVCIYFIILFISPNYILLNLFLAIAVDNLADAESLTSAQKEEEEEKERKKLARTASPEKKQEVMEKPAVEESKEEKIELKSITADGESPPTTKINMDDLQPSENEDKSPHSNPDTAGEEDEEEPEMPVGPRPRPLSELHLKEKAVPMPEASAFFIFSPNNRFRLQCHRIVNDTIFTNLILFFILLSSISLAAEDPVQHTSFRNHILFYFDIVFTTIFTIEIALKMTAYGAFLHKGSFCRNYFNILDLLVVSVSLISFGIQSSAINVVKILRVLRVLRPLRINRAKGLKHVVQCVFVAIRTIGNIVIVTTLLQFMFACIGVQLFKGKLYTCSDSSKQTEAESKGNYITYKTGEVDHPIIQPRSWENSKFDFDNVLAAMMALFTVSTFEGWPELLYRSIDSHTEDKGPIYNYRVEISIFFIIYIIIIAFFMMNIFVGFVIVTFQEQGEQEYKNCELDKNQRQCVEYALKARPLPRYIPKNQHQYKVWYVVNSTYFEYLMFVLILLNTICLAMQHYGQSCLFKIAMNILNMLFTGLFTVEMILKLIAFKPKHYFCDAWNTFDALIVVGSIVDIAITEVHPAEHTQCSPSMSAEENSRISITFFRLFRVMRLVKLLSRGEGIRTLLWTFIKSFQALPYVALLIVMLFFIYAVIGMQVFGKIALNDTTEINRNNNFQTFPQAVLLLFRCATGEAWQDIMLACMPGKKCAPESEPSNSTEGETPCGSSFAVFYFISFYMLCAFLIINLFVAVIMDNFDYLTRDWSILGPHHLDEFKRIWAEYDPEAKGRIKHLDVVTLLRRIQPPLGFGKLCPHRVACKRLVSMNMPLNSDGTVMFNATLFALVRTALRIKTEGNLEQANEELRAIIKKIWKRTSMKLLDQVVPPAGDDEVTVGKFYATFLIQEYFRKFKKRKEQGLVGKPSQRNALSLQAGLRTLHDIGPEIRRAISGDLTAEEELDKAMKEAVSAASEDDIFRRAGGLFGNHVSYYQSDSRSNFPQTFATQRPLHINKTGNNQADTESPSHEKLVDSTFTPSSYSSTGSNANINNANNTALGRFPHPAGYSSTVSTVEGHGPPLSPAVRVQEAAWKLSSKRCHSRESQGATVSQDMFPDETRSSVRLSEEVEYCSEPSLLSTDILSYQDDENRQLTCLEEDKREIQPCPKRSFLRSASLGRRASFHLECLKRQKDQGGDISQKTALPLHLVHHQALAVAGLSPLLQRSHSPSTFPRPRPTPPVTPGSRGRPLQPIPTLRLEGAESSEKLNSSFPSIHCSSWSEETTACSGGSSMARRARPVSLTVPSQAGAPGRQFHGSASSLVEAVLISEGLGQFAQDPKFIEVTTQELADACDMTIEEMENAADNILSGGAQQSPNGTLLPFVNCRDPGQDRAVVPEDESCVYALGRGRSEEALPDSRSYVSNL
RECORDED METRIC: AC50

COMPOUND	RECORDED METRIC	RECORDED VALUE
CCN(CC)CCN1C(=O)CN=C(c2ccccc2F)c2cc(Cl)ccc21	AC50	> 10 µM
CCOC(=O)O[C@]1(C(=O)OCCl)CC[C@H]2[C@@H]3CCC4=CC(=O)C=C[C@]4(C)[C@H]3[C@@H](O)C[C@@]21C [LOTEPREDNOL ETABONATE]	AC50	> 30 µM
CC(=O)[C@@]1(O)CC[C@H]2[C@@H]3C=C(Cl)C4=CC(=O)[C@@H]5C[C@@H]5[C@]4(C)[C@H]3CC[C@@]21C	AC50	> 10 µM
OC1(c2ccc(Cl)cc2)c2ccccc2C2=NCCN21 (stereo not drawn)	AC50	> 10 µM
Cc1ncc2n1-c1ccc(Cl)cc1C(c1ccccc1F)=NC2	AC50	> 10 µM
C[C@]12CCC(=O)C(O)=C1CC[C@@H]1[C@@H]2CC[C@]2(C)C(=O)CC[C@@H]12	AC50	> 30 µM
CC(C(=O)O)c1ccc2c(c1)[nH]c1ccc(Cl)cc12 (stereo not drawn)	AC50	> 10 µM
O=C1CN(/N=C/c2ccc(-c3ccc([N+](=O)[O-])cc3)o2)C(O)=N1	AC50	> 10 µM
COc1cc2c(cc1OC)C(CCc1ccc(Cl)cc1)N(C)CC2 (stereo not drawn)	AC50	> 10 µM
COc1ccc(CC2c3cc(OC)c(OC)cc3CC[N+]2(C)CCC(=O)OCCCCCOC(=O)CC[N+]2(C)CCc3cc(OC)c(OC)cc3C2Cc2ccc(OC)c(OC)c2)cc1OC (stereo not drawn)	AC50	> 30 µM
CC(N)C12CC3CC(CC(C3)C1)C2 (stereo not drawn)	AC50	> 10 µM
O=C1CN=C(c2ccccn2)c2cc(Br)ccc2N1	AC50	> 10 µM
O=C(O)CCNC(=O)c1ccccc1	AC50	> 30 µM
CCCC(CCC)C(=O)O	AC50	> 10 µM
C#C[C@]1(OC(C)=O)CC[C@H]2[C@@H]3CCC4=C/C(=N/O)CC[C@@H]4[C@H]3CC[C@@]21CC [NORGESTIMATE]	AC50	> 30 µM
CC(C)[C@H](N)C(=O)OCC(CO)OCn1cnc2c(=O)nc(N)[nH]c21 (stereo partly drawn)	AC50	> 30 µM
CC(N)C(O)c1ccccc1 (stereo not drawn)	AC50	> 10 µM
CCN(CC)C(=O)Nc1ccc(OCC(O)CNC(C)(C)C)c(C(C)=O)c1 (stereo not drawn)	AC50	> 30 µM

---

target: UniProt P41595; assay type: functional, cell-based
Sequence (P41595 whole entry): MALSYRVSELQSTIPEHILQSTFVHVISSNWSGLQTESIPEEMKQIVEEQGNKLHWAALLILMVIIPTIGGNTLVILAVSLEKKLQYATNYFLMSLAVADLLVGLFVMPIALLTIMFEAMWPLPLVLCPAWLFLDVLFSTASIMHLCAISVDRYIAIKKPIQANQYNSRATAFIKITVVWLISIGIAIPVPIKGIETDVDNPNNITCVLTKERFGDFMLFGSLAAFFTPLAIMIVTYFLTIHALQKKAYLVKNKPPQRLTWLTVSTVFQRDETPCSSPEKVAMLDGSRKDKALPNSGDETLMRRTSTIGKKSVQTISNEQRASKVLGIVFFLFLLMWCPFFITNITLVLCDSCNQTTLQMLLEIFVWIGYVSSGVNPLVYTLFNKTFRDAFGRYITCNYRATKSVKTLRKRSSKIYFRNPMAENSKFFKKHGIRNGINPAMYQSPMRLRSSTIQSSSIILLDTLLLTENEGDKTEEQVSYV
RECORDED METRIC: AC50

COMPOUND	RECORDED VALUE
CC(C)(C)C(=O)OCC(=O)[C@H]1CC[C@H]2[C@@H]3CCC4=CC(=O)CC[C@]4(C)[C@H]3CC[C@]12C [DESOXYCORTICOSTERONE PIVALATE]	> 10 µM
CC(C)c1nc(N(C)S(C)(=O)=O)nc(-c2ccc(F)cc2)c1/C=C/[C@@H](O)C[C@@H](O)CC(=O)O	> 30 µM
CC(C(=O)O)c1ccc(CC2CCCC2=O)cc1 (stereo not drawn)	> 30 µM
CC(=O)O[C@]1(C(C)=O)CC[C@H]2[C@@H]3C=C(C)C4=CC(=O)CC[C@@H]4[C@H]3CC[C@@]21C [NOMEGESTROL ACETATE]	> 30 µM
Cc1ncc2n1-c1ccc(Cl)cc1C(c1ccccc1F)=NC2	> 10 µM
CC(N)C12CC3CC(CC(C3)C1)C2 (stereo not drawn)	> 10 µM
Cc1noc(NS(=O)(=O)c2ccc(N)cc2)c1C	> 10 µM
[H]/N=C(/N)N/C(=N/[H])NCCc1ccccc1	> 10 µM
C[C@]12CCC(=O)C(O)=C1CC[C@@H]1[C@@H]2CC[C@]2(C)C(=O)CC[C@@H]12	> 30 µM
C[C@]12C=CC(=O)N[C@@H]1CC[C@@H]1[C@@H]2CC[C@]2(C)[C@@H](C(=O)Nc3cc(C(F)(F)F)ccc3C(F)(F)F)CC[C@@H]12 [DUTASTERIDE]	> 10 µM
COc1ccccc1OCCNCC(O)COc1cccc2[nH]c3ccccc3c12 (stereo not drawn)	0.532 µM
C#C[C@]1(O)CC[C@H]2[C@@H]3CCC4=CC(=O)CC[C@@H]4[C@H]3C(=C)C[C@@]21CC	> 30 µM
CCOC(=O)c1cncn1[C@H](C)c1ccccc1 [ETOMIDATE]	> 10 µM
CC(C)NCC(O)c1ccc(O)c(O)c1 (stereo not drawn)	> 10 µM
CC1(C)S[C@@H]2[C@H](NC(=O)[C@H](N)c3ccccc3)C(=O)N2[C@H]1C(=O)OCOC(=O)[C@@H]1N2C(=O)C[C@H]2S(=O)(=O)C1(C)C	> 30 µM
O=C(O)CCNC(=O)c1ccccc1	> 30 µM
CC(C)[C@H](N)C(=O)OCC(CO)OCn1cnc2c(=O)nc(N)[nH]c21 (stereo partly drawn)	> 30 µM
CN(C)CCC[C@@]1(c2ccc(F)cc2)OCc2cc(C#N)ccc21	22 µM
COc1cc2nccc(Oc3ccc(NC(=O)C4(C(=O)Nc5ccc(F)cc5)CC4)cc3)c2cc1OC [CABOZANTINIB]	5.8 µM
CCOC(=O)C1=C(C)NC(C)=C(C(=O)OC)C1c1cccc([N+](=O)[O-])c1 (stereo not drawn)	> 10 µM
CCC(=O)O[C@]1(C(=O)SCF)[C@H](C)C[C@H]2[C@@H]3C[C@H](F)C4=CC(=O)C=C[C@]4(C)[C@@]3(F)[C@@H](O)C[C@@]21C [FLUTICASONE PROPIONATE]	> 30 µM
Oc1ccc2c(c1)CC[C@H](c1ccccc1)[C@@H]2c1ccc(OCCN2CCCC2)cc1	9.49 µM
Clc1ccc(C(Cn2ccnc2)OCc2ccsc2Cl)c(Cl)c1 (stereo not drawn)	> 30 µM
C/C(=C\C(=O)OCCCCCCCCC(=O)O)C[C@@H]1OC[C@H](C[C@@H]2O[C@H]2[C@@H](C)[C@H](C)O)[C@@H](O)[C@H]1O	> 10 µM
NC1CCN(c2nc3c(cc2F)c(=O)c(C(=O)O)cn3-c2ccc(F)cc2F)C1 (stereo not drawn)	> 30 µM
C[C@H](CCC(=O)O)[C@H]1CC[C@H]2[C@@H]3[C@@H](O)C[C@@H]4C[C@H](O)CC[C@]4(C)[C@H]3CC[C@]12C	> 30 µM
CCCC(CCC)C(=O)O	> 10 µM
COc1ccccc1Oc1c(NS(=O)(=O)c2ccc(C(C)(C)C)cc2)nc(-c2ncccn2)nc1OCCO	> 10 µM
Clc1ccc2c(N3CCN(CCCN4CCN(c5ccnc6cc(Cl)ccc56)CC4)CC3)ccnc2c1	> 30 µM
CN(C)CCCNc1c2ccccc2nc2cccc([N+](=O)[O-])c12	0.76 µM
CCCN(CCC)C(=O)Cc1c(-c2ccc(Cl)cc2)nc2ccc(Cl)cn12	> 30 µM
Cc1cc2cc3c(C)cc(=O)oc3c(C)c2o1	> 10 µM
CC(C)COCC(CN(Cc1ccccc1)c1ccccc1)N1CCCC1 (stereo not drawn)	28 µM

---

target: Alpha-2C adrenergic receptor (Homo sapiens, UniProt P18825); format: functional; further: assay procedure not described here
Sequence (P18825 whole entry): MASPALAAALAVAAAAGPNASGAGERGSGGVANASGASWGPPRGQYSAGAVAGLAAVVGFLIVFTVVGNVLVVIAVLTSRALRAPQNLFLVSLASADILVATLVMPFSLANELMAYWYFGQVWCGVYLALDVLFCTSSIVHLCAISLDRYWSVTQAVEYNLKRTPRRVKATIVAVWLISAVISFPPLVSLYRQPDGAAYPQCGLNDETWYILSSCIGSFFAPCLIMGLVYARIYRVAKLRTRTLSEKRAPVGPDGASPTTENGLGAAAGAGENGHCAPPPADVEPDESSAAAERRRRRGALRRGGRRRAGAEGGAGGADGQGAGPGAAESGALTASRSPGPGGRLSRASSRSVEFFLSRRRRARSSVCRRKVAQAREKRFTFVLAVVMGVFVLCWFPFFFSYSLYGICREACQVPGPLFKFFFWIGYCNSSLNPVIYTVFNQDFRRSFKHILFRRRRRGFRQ
RECORDED METRIC: AC50

COMPOUND	RECORDED VALUE
CC(C)(C)C(=O)OCC(=O)[C@H]1CC[C@H]2[C@@H]3CCC4=CC(=O)CC[C@]4(C)[C@H]3CC[C@]12C [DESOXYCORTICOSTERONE PIVALATE]	> 10 µM
C#C[C@]1(O)CC[C@H]2[C@@H]3CCC4=CC(=O)CC[C@@H]4[C@H]3C(=C)C[C@@]21CC	> 30 µM
O=C1CCc2cc(OCCCCc3nnnn3C3CCCCC3)ccc2N1	> 30 µM
CC(C)c1nc(N(C)S(C)(=O)=O)nc(-c2ccc(F)cc2)c1/C=C/[C@@H](O)C[C@@H](O)CC(=O)O	> 30 µM
CC(CCc1ccc(O)cc1)NCCc1ccc(O)c(O)c1 (stereo not given)	0.798 µM
C#C[C@]1(OC(C)=O)CC[C@H]2[C@@H]3CCC4=C/C(=N/O)CC[C@@H]4[C@H]3CC[C@@]21CC [NORGESTIMATE]	> 30 µM
Oc1ccc2c(c1)[C@@]13CCCC[C@@]1(O)[C@@H](C2)N(CC1CCC1)CC3	> 30 µM
C=CCNc1nc(NCC=C)nc(N2CCN(C(c3ccc(F)cc3)c3ccc(F)cc3)CC2)n1	> 30 µM
NC1CCN(c2nc3c(cc2F)c(=O)c(C(=O)O)cn3-c2ccc(F)cc2F)C1 (stereo not given)	> 30 µM
Cc1noc(NS(=O)(=O)c2ccc(N)cc2)c1C	> 10 µM
Cc1cc2cc3c(C)cc(=O)oc3c(C)c2o1	> 10 µM
C[C@@H](NCCCc1cccc(C(F)(F)F)c1)c1cccc2ccccc12	0.83 µM
C=C1/C(=C\C=C2/CCC[C@]3(C)[C@@H]([C@H](C)/C=C/[C@@H](O)C4CC4)CC[C@@H]23)C[C@@H](O)C[C@@H]1O	> 30 µM
C[C@]12C=CC(=O)N[C@@H]1CC[C@@H]1[C@@H]2CC[C@]2(C)[C@@H](C(=O)Nc3cc(C(F)(F)F)ccc3C(F)(F)F)CC[C@@H]12 [DUTASTERIDE]	> 10 µM
COc1ccc2nc3cc(Cl)ccc3c(Nc3cc(CN4CCCC4)c(O)c(CN4CCCC4)c3)c2n1	21 µM
CCC(C)C(CC)C(N)=O (stereo not given) [VALNOCTAMIDE]	> 30 µM
CCC(C)C1(CC)C(=O)NC(=O)NC1=O (stereo not given)	> 30 µM
CN(C)CCC[C@@]1(c2ccc(F)cc2)OCc2cc(C#N)ccc21	> 30 µM
Cn1c(=O)cc(N2CCC[C@@H](N)C2)n(Cc2ccccc2C#N)c1=O	> 10 µM
CC1OC2(CS1)CN1CCC2CC1 (stereo not given)	> 30 µM
Cc1cc(C(C)(C)C)cc(C)c1CC1=NCCN1	0.239 µM
CCCC(CCC)C(=O)O	> 10 µM
CCN(CC)C(=O)Nc1ccc(OCC(O)CNC(C)(C)C)c(C(C)=O)c1 (stereo not given)	> 30 µM
CC(N)C12CC3CC(CC(C3)C1)C2 (stereo not given)	> 10 µM
COc1cc(N)c(Cl)cc1C(=O)NC1CCN(Cc2ccccc2)CC1 [CLEBOPRIDE]	2.1 µM
CCN1CCCC1CNC(=O)c1cc(S(=O)(=O)CC)c(N)cc1OC (stereo not given) [AMISULPRIDE]	0.71 µM
CCN(CC)CCNC(=O)c1c(C)[nH]c(/C=C2\C(=O)Nc3ccc(F)cc32)c1C	1.77 µM
CC1=C(C)C(=O)C(C(CCCCCC(=O)O)c2ccccc2)=C(C)C1=O (stereo not given)	> 30 µM
C#CCOc1ccc(N)cc1C(=O)NCCCC [PARSALMIDE]	> 30 µM
O=C1CN=C(c2ccccn2)c2cc(Br)ccc2N1	> 10 µM
COc1ccccc1Oc1c(NS(=O)(=O)c2ccc(C(C)(C)C)cc2)nc(-c2ncccn2)nc1OCCO	> 10 µM
Cc1cnc(C(=O)NCCc2ccc(S(=O)(=O)NC(=O)NC3CCCCC3)cc2)cn1 [GLIPIZIDE]	> 10 µM
CC(=O)[C@@]1(O)CC[C@H]2[C@@H]3C=C(Cl)C4=CC(=O)[C@@H]5C[C@@H]5[C@]4(C)[C@H]3CC[C@@]21C	> 10 µM
[H]/N=C(/N)N/C(=N/[H])NCCc1ccccc1	> 30 µM
CCC1(c2ccccc2)CCC(=O)NC1=O (stereo not given) [GLUTETHIMIDE]	> 10 µM
